Values from paper PMC12136788

For each entry below, report its binding signal value.
target-under-test: T1, UNK ZnF1-3 (human, UniProt Q9C0B0 31-174)
T1 sequence: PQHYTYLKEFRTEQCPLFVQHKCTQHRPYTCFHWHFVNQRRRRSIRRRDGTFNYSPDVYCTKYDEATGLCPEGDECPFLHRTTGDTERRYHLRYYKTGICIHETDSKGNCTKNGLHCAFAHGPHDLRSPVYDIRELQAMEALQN
test-protocol: nsRBNS (natural sequence RNA bind-n-seq); RBNS binding buffer (assumed for nsRBNS): 25 mM Tris pH 7.5, 150 mM KCl, 3 mM MgCl2, 0.01% Triton X-100, 500 ug/ml BSA, 20 U/ml SUPERase-In, 4 C; UNK is unkempt and MSI1 is Musashi-1; names of the RNAs are library labels; protein concentration not given here; high values mean tight binding
In all, about 24,000 sequences were measured (“enrichment r”: median about 0.99, highest 2% from about 3.7 on). The sample holds the highest values, similar sequences and a random draw of the others, so the mix is not that of the screen.
The answer is to be given in enrichment R; state only the numeric part.

Given the entry chr5:143664956:143664957:-_ENSMUSG00000029580_ENSMUST00000100497|mus_hu|FALSE|FALSE (ssRNA) RNA: GGGAGUUCUACAGUCCGACGAUCUCUCAAGUUGGGGGACAAAAAAGGGGGAAGGGGGGGCACGAAGGCUCAUCAUUCAAAAUAAAACAAAAUAAAAAAGUAUUAAGGCGAAGAUUAAAAAAAUUUUGCAUUACAUAAUUUACACAACAGAGGAUUGAGCAUCA , report its measured binding signal.
8.16

Give its binding signal value. Item: chr5:143664956:143664957:-_ENSMUSG00000029580_ENSMUST00000100497|mus_mus|FALSE|FALSE (ssRNA) RNA: GGGAGUUCUACAGUCCGACGAUCAUACAUCAAGUUGGGGGGACAAAAAAAAGGGAGGCCUCAGACCUGGGCCAUUCAGAAAUUAAAAACAAAAAUGAAGUAUUAAGGCGGAAGAUUUAAAAAAAUUUUUGCAGUACAUAAUUUCAACAGAGGAUUGAGCAUCA
6.75

Given the entry chr1:161298228:161298229:+_ENSG00000143252_ENST00000367975|hu_hu|motif|central (ssRNA) RNA: GGGAGUUCUACAGUCCGACGAUCCAUGGGAAGAGACCAACUGUAGAUAGUAAUGUGGGGAGACAGAGGACGGUUUGAACCGGUAUUCUUAUUCCAGAACCGCUCCAUCUCUUCUUUGGCCGUGGUUCCCAAAGGAACAGCAUUCAACAGAGGAUUGAGCAUCA , report its measured binding signal.
1.08

What value of binding signal has been reported for the following binder? 59346998_59352246_650_CDS_ENSG00000215114_ENST00000399598|human|control|control (ssRNA) RNA: GGGAGUUCUACAGUCCGACGAUCAUCCAAAUUCACUUGGCCACCAUGAACAAGGCGCUGAAGCUCCAGGGGAAUCUCUCCUCUCUUAACAGACUCCAGAAAUUGAGCAUUUGUUGGUUCAUUGUAAGGUCUCAAUUCUCCAUCCAACAGAGGAUUGAGCAUCA
1.23

Reported binding signal for chr2:217001844:217001845:+_ENSG00000079246_ENST00000392132|hu_hu|hu_hu_hu_mus_False|18_28 (ssRNA) RNA: GGGAGUUCUACAGUCCGACGAUCACCAACUUGAGGAUUAGAUCUUUUGUCAUAAGCAUAUCGGACGAUGGCGACCAUGUUUAACUCAUCCAAAGCAUGAACGAGAGAGGAAAGUGCAACUGCAGCUGCCUCAUCAUCCUUUGCCAACAGAGGAUUGAGCAUCA : what is it?
1.42

Find the recorded binding signal belonging to 118753231_118753351_2268_3pUTR_ENSG00000125354_ENST00000354416|human|control|control (ssRNA) RNA: GGGAGUUCUACAGUCCGACGAUCUGAAAUACCUCACAAGAAGAAUUCGGUAAGGCUAUCAUUCAAGACUCUAGGCUGGUAAUAAUAUUCAGGUUUAUUCUCCCUUUUGCAUCUGUGGGAUACCCAGAGUUAGAGAGAGGGGAACAACAGAGGAUUGAGCAUCA and report it.
1.58

Recorded binding signal for chr4:17845017:17845018:+_ENSG00000109805_ENST00000514176|hu_mus|hu_hu_hu_mus_False|48_58 (ssRNA) RNA: GGGAGUUCUACAGUCCGACGAUCGCUCUCUUAACUUGUAUCUUCAUUAAGGAACUCUGCAAGGUUAAGUUUACUUUUUCUAGUGCUGCGGUUUUGGGCUCGUCUGGGUAAUCUCAUCUUCAUUUCUGAUGGUGGUUCAUGAUCCAACAGAGGAUUGAGCAUCA , please?
0.378
